# target-entity: Amine oxidase [flavin-containing] B (Homo sapiens)
# Sequence (P27338 whole entry): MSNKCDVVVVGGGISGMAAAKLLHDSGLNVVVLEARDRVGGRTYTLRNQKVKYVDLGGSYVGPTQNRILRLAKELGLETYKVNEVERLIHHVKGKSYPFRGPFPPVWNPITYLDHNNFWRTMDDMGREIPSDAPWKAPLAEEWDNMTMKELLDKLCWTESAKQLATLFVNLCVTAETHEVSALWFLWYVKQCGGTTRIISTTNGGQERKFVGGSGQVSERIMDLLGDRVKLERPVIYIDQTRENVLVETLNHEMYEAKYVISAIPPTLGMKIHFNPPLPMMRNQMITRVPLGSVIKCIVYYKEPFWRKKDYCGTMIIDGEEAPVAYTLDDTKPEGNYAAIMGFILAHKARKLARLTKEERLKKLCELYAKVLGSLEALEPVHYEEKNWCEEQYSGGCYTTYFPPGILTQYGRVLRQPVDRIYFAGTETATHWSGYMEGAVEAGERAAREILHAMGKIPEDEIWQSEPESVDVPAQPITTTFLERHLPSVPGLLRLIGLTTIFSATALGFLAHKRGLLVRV
readout: IC50 (µM)
Respond numerically; units are µM and should not be typed.

For COc1ccc2cc3[n+](cc2c1OC)CCc1cc(O)c(O)cc1-3 the compound record lists IC50 as 9.06

----------
Recorded pIC50 by entry
# target-entity: Acetylcholinesterase (Homo sapiens)
# Sequence (P22303 whole entry): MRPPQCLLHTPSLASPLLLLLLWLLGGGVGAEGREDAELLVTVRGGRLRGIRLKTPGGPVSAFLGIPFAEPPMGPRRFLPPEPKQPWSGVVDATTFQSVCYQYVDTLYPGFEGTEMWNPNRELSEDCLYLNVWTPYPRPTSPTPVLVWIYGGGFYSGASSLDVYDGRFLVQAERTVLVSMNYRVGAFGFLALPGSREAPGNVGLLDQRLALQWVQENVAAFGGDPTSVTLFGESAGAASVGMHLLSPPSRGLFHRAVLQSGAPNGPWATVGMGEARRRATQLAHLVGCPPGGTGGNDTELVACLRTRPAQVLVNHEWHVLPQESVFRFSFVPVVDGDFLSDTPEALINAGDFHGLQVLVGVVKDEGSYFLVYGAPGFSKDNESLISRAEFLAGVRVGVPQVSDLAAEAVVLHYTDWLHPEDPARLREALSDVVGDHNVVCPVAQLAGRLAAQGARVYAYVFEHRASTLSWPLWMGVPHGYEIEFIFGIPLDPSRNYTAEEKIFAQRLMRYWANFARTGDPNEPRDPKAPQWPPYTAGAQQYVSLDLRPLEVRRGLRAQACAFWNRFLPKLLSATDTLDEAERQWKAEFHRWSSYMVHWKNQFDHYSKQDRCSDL
# method-description: Inhibition of acetylcholinesterase (unknown origin) using acetylthiocholine iodide as substrate incubated for 10 mins by Ellman's colorimetric method
When answering, recall that pIC50 equals minus log10 of the concentration in mol/L, and write that number alone.

{"columns": ["smiles-notation", "pIC50"],
 "data": [
  ["COc1ccc2cc3[n+](cc2c1OC)CCc1cc(O)c(O)cc1-3", 5.11]
]}

Okay, now this compound:
For Oc1cc2c(cc1O)-c1cc3ccc(O)c(O)c3c[n+]1CC2 the compound record lists pIC50 as 5.64

----------
# Test system: HeLa
# method-description: Antiproliferative activity against human HeLa cells assessed as inhibition of cell growth incubated for 72 hrs by MTT assay
# Format: functional, cell-based
readout: IC50 (µM)
Respond numerically; units are µM and should not be typed.

{"columns": ["compound", "unit-spec", "IC50"],
 "data": [
  ["CCCCCN(CCCCC)c1cc(OC)c(OC)c2c1CC1c3cc4c(cc3CCN1C2)OCO4 (configuration not stated)", "µM", 9.74]
]}

For CCCCCCN(CCCCCC)c1cc(OC)c(OC)c2c[n+]3c(cc12)-c1cc2c(cc1CC3)OCO2 the compound record lists IC50 as 0.26

----------
# Test system: HepG2
# method-description: Cytotoxicity against human HepG2 cells assessed as inhibition of cell proliferation incubated for 24 hrs by MTT assay
# Type: functional, cell-based
# setup-conditions: HepG2, 24 h
readout: pIC50
When answering, recall that pIC50 equals minus log10 of the concentration in mol/L, and write that number alone.

For CCCCCC/C=C\C/C=C/C(=O)NCCCCCCOc1c(OC)ccc2cc3[n+](cc12)CCc1cc2c(cc1-3)OCO2 the compound record lists pIC50 as 5.35

----------
# target-entity: Histone acetyltransferase p300 (Homo sapiens, UniProt Q09472)
# Sequence (Q09472 whole entry, the tested form may be a part): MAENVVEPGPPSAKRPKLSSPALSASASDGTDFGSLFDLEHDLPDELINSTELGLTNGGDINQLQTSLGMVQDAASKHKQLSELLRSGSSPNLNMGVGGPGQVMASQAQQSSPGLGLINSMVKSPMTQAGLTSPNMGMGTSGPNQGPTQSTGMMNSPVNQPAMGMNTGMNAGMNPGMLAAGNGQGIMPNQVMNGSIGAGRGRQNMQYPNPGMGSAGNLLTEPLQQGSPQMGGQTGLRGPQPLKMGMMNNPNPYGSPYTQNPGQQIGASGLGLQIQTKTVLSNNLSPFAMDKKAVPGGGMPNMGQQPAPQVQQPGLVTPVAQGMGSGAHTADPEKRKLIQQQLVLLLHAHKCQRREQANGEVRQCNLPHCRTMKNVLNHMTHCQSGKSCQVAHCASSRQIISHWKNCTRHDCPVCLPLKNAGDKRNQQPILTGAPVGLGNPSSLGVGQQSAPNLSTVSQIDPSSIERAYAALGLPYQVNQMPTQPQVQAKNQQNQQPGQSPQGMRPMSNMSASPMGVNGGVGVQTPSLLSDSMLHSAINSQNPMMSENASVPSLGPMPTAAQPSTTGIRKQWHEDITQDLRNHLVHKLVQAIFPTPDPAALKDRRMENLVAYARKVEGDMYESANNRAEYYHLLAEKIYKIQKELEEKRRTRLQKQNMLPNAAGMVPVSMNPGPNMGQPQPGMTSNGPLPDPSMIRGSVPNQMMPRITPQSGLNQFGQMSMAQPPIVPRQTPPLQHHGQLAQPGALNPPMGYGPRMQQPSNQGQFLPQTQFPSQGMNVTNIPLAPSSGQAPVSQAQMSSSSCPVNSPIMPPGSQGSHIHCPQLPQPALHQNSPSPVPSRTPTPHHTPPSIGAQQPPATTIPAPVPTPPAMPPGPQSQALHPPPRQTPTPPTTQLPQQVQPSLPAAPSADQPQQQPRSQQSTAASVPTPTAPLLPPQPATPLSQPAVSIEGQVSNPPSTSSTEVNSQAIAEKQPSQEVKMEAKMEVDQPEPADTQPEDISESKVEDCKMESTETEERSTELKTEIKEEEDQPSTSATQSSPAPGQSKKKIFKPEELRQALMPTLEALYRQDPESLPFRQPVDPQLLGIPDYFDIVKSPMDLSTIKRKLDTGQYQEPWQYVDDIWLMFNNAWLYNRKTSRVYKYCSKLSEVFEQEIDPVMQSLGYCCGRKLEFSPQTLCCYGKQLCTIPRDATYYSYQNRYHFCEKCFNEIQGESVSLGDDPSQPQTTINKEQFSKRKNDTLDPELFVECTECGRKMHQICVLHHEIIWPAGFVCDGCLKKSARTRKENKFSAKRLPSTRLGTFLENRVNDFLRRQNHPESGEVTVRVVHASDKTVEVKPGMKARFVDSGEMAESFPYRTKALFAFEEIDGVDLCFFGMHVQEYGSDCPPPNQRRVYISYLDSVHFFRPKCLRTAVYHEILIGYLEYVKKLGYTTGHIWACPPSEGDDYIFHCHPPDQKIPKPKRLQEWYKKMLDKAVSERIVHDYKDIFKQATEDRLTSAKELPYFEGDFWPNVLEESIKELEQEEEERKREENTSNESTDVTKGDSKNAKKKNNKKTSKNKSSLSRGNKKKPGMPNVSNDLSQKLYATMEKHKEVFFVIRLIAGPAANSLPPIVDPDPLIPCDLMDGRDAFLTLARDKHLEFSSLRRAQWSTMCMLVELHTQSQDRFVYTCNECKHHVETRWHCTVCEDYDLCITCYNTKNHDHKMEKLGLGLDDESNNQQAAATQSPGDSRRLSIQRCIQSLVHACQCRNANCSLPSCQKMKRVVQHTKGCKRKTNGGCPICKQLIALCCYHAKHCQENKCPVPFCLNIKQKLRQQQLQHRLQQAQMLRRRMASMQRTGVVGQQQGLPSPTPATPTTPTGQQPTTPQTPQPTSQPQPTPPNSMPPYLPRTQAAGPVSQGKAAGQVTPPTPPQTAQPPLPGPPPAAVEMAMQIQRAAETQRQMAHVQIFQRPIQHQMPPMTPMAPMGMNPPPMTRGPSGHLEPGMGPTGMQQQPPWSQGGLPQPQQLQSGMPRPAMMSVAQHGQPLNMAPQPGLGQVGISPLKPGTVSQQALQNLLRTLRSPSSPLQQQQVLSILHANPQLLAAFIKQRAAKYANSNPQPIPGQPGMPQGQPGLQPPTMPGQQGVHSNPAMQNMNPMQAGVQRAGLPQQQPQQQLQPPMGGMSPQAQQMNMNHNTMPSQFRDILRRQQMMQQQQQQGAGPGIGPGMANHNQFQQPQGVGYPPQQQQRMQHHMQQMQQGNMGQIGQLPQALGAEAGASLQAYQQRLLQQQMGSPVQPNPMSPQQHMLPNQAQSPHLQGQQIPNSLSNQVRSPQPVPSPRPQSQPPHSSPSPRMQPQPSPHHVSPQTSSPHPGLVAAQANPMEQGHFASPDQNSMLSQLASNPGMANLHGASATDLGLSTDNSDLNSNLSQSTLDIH
# method-description: Inhibition of N-terminal His/GST-tagged recombinant human p300 HAT domain (965 to 1810 residues) expressed in Sf9 insect cells using isotope labelled 3H-Ac-CoA as substrate incubated for 60 mins by microbeta counter based analysis
readout: IC50
In your response, the unit should come after the numeric value.

For COc1cc2cc3[n+](cc2cc1OC)CCCc1cc2c(cc1-3)OCO2 the molecule record lists IC50 as 1800 nM

----------
# Tested on: LS174T
# method-description: Antiproliferative activity against human LS174T cells assessed as inhibition of cell proliferation incubated for 48 hrs by MTT assay
# Format: functional, cell-based
Recorded IC50 by entry
Respond numerically; units are µM and should not be typed.

{"columns": ["compound", "target-entity", "IC50, µM"],
 "data": [
  ["COc1ccc2c(CC(=O)ON[C@@H](CSCc3ccccc3)C(=O)OCc3ccccc3)c3[n+](cc2c1OC)CCc1cc2c(cc1-3)OCO2", "LS174T", 15]
]}

For COc1ccc2cc3[n+](cc2c1OC)CCc1cc2c(cc1-3)OCO2 [BERBERINE CHLORIDE] the compound record lists IC50 as 25

----------
# method-description: Therapeutic index, ratio of CC50 for cytotoxicity against MDCK cells to IC50 for antiviral activity against influenza virus A A/PR/8/34
# Format: toxicity, cell-based
# setup-conditions: dog, read-out: TI
readout: selectivity ratio
Respond using a number only.

For COc1ccc(N2CCN(CCCCCOc3c(OC)ccc4cc5[n+](cc34)CCc3cc4c(cc3-5)OCO4)CC2)c(OC)c1.[Cl-] the molecule record lists selectivity ratio as 111

----------
# method-description: Antioxidant activity assessed as DPPH radical scavenging activity measured after 25 mins by UV visible spectrophotometeric analysis
# Type: functional
readout: pIC50
When answering, recall that pIC50 equals minus log10 of the concentration in mol/L, and write that number alone.

{"columns": ["smiles-notation", "pIC50"],
 "data": [
  ["COc1ccc2cc3[n+](cc2c1OCCCCCn1ccc2ccccc21)CCc1cc2c(cc1-3)OCO2", 4.77]
]}

Okay, now this compound:
For COc1ccc2cc3[n+](cc2c1OCCCCCn1c(C)cc2ccccc21)CCc1cc2c(cc1-3)OCO2.[Cl-] the compound record lists pIC50 as 4.70

----------
Recorded pIC50 by entry
# Test system: HCT-8
# method-description: Antiproliferative activity against human HCT-8 cells assessed as inhibition of cell growth incubated for 72 hrs by MTT assay
# Format: functional, cell-based
# setup-conditions: HCT-8, 72 h
When answering, recall that pIC50 equals minus log10 of the concentration in mol/L, and write that number alone.

{"columns": ["compound", "target-entity", "pIC50"],
 "data": [
  ["CCCCCCN(CCCCCC)c1cc(OC)c(OC)c2c[n+]3c(cc12)-c1cc2c(cc1CC3)OCO2", "HCT-8", 6.59]
]}

Okay, now this compound:
For CCCCCN(CCCCC)c1cc(OC)c(OC)c2c1CC1c3cc4c(cc3CCN1C2)OCO4 (configuration not stated) the compound record lists pIC50 as 5.01

----------
# Tested on: MCF7
# method-description: Cytotoxicity against human MCF7 cells assessed as inhibition of cell proliferation incubated for 24 hrs by MTT assay
# Assay type: functional, cell-based
# setup-conditions: MCF7, 24 h
readout: IC50
In your response, the unit should come after the numeric value.

For CCCCCC/C=C\C/C=C/C(=O)NCCCCCCOc1c(OC)ccc2cc3[n+](cc12)CCc1cc2c(cc1-3)OCO2 the compound record lists IC50 as 3.91 µM

----------
# System: Coxsackievirus B5
# method-description: Antiviral activity against Coxsackievirus B5 infected in African green monkey Vero cells assessed as reduction in virus-induced cytopathic effect incubated for 48 hrs by microscopic analysis
# Assay type: functional, organism-based
# setup-conditions: Enterovirus B
readout: IC50 (µM)
Respond numerically; units are µM and should not be typed.

Short answer on Coxsackievirus B5 for COc1cc2c(cc1OCCOCCN)CC[n+]1cc3c(OC)c(OC)ccc3cc1-2 , IC50: 3.08

----------
# method-description: Cytotoxicity against MDCK cells incubated for 48 hrs by SRB bioassay
# Type: toxicity, cell-based, Canis lupus familiaris
# setup-conditions: dog
readout: CC50 at 48 h

For COc1ccc(N2CCN(CCCCCOc3c(OC)ccc4cc5[n+](cc34)CCc3cc4c(cc3-5)OCO4)CC2)c(OC)c1.[Cl-] the compound record lists CC50 at 48 h as 3890 µg/mL

----------
# System: Bel-7402
# method-description: Antiproliferative activity against human Bel-7402 cells assessed as inhibition of cell growth incubated for 72 hrs by MTT assay
# Type: functional, cell-based
# setup-conditions: Bel-7402, 72 h
readout: pIC50
When answering, recall that pIC50 equals minus log10 of the concentration in mol/L, and write that number alone.

{"columns": ["compound", "measured-number"],
 "data": [
  ["CCCCCN(CCCCC)c1cc(OC)c(OC)c2c1CC1c3cc4c(cc3CCN1C2)OCO4 (configuration not stated)", 5.01]
]}

Okay, now this compound:
For CCCCCCN(CCCCCC)c1cc(OC)c(OC)c2c[n+]3c(cc12)-c1cc2c(cc1CC3)OCO2 the compound record lists pIC50 as 6.59

----------
# method-description: Antioxidant activity assessed as ABTS radical cation scavenging activity incubated for 10 mins under dark condition
# Type: functional
readout: pIC50
When answering, recall that pIC50 equals minus log10 of the concentration in mol/L, and write that number alone.

For COc1cc(CNc2nc3ccccc3s2)c2cc3[n+](cc2c1O)CCc1cc2c(cc1-3)OCO2 the compound record lists pIC50 as 5.07

----------
# method-description: Antioxidant activity assessed as DPPH radical scavenging potential measured for 30 mins optical density based analysis
# Assay type: functional
readout: pIC50
When answering, recall that pIC50 equals minus log10 of the concentration in mol/L, and write that number alone.

For COc1cc(CNc2nc3ccccc3s2)c2cc3[n+](cc2c1O)CCc1cc2c(cc1-3)OCO2 the compound record lists pIC50 as 4.59
